# credit: the supplement of paper PMC11616607

# Tested on: Kuramochi
# assay.notes: drug sensitivity score (DSS) from 5-point dose-response viability curve (DSS (area-under-curve based score)); higher = more sensitive (stronger growth inhibition or killing); extreme values may be limits of the assay
# condition.parameters: exposure time: 72 h; concentration range: 5 concentrations over 10,000-fold range
// values below are reported drug sensitivity score
Number only, no unit.

Example cases with answers are listed next.
| compound | tested.target | drug sensitivity score |
| --- | --- | --- |
| COc1ccc(S(=O)(=O)Nc2cccnc2Nc2ccc(O)cc2)cc1 [ABT-751] | Kuramochi | 7.4 |
| COC[C@H](NC(=O)c1cnc(C)s1)C(=O)N[C@@H](COC)C(=O)N[C@@H](Cc1ccccc1)C(=O)[C@@]1(C)CO1 [Oprozomib] | Kuramochi | 9.6 |
| O=C(/C=C\n1cnc(-c2cc(C(F)(F)F)cc(C(F)(F)F)c2)n1)NNc1cnccn1 [Selinexor] | Kuramochi | 8.1 |
| CNC(=O)c1ccc2cc([C@@]3(O)CCn4cncc43)ccc2c1 [Orteronel] | Kuramochi | 0 |
| Cc1ccc(C(=O)Nc2cccc(C(F)(F)F)c2)cc1Nc1nc(-c2cccnc2)nc2c1cnn2C [NVP-BHG712] | Kuramochi | 2.5 |

# compound CNc1ncc2cc(-c3cc(NC(=O)NCCC(C)(C)C)c(F)cc3C)c(C)nc2n1 ; its drug sensitivity score = 8.7

# compound C[C@@]1(C(=O)Nc2ccc(F)nc2)CCCN1c1nc(Nc2cc(C3CC3)n[nH]2)c2cccn2n1 ; its drug sensitivity score = 4.8
